Cited source: patent US20250243282A1

Listing of recorded % inhibition of TNFα secretion by entry.
# target.or.test.system: Recombinant human Gal3 (rhGal3) (TrueBinding, #QC200361) (human, UniProt P17931 2-250); further: test concentration or dose not given here
# assay.comment: cell-based or functional assay
test.readout: % inhibition of TNFα secretion (%)

binder: 20D11.2C6 (antibody, mouse IgG2a, V domains shown) VH: EVQLQQSGPELVKPGASVKISCKASGYTFTDFYINWVKQSHGKSLEWIGDINPKNGGINYNPKFKIKATLTVDKSSSTSYMDLRGLTSEDSAVYYCTSGYGFPYWGQGTLVTVSA VL: DIQMNQSPSSLSASLGDTITITCRASQNIYIWLSWYQQKPGNIPKLLIYKASNLHTGVPSRFSGSGSGTDFTLTISTLQPEDIATYFCLQGQSYPLTFGAGTKLEMKR
test.readout: % inhibition of TNFα secretion
result: 69.1
--
binder: 2D10-VH0-VL0 (antibody, human IgG4 S228P, kappa, V domains shown) VH: QVQLQQSGPELVKPGASVKISCKASGYTFTDYYINWVKQRPGQGLEWIGWIYPGSQDTKYNEKFKGKATLTVDTSSSTAYMQLGSLTSEDSAVYFCANYFGSSGWFFDVWGTGTTVTVSS VL: DIVMTQAAFSNPVTLGTSASISCRSSKSLLHSDGITYLYWYLQRPGQSPQLLIYRMSNLASGVPDRFSGSGSGTDFTLRISRVEAEDVGVYYCAQMIEFPLTFGAGTILELKR
test.readout: % inhibition of TNFα secretion
result: 39.6
--
binder: F846TC.14E4 (antibody, human IgG4 S228P, kappa, V domains shown) VH: QVTLKESGPGILQPSQTLSLTCSFSGFSLSTSGMGVGWIRQPSGKGLEWLAHIWWDDDKYYNTALKSGLTISKDASKNQVFLKIASMDTADTATYYCARNLYDGSYGYYAMDYWGQGTSVTVSS VL: DIVMTQAAFSNPVTLGTSASISCRSSKSLLHTNGITFLYWYLQKPGQSPQPLIYQMSNLASGVPDRFSSSGSGTDFTLRISRVEAEDVGVYYCAQNLELPWTFGGGTKLEINR
test.readout: % inhibition of TNFα secretion
result: 50.1
--
binder: 13G4.2F8 (antibody, human IgG4 S228P, kappa, V domains shown) VH: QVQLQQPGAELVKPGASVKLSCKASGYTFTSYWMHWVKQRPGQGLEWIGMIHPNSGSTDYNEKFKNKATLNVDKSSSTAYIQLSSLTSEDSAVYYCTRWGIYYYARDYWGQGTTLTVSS VL: DIVMTQSQKFMSTSVGERVSITCKASQNVGTNVAWYQQKAGQSLELLIYGASNRHTGVPDRFTGSGSGTDFTLTITNVQSEDMTNYFCEQYSNFPLTFGAGTKLELKR
test.readout: % inhibition of TNFα secretion
result: 83.2
--
binder: 847.15F9 (antibody, V domains shown) VH: QVQMKQSGPGLVQPSQSLSITCTVSGFSLINYGVHWVRQSPGKGLEWLGVIWSGGSTDYNAAFISRLSISKDNSKSQVFFKMNSLQADDTAIYYCARIYYYGRGYAMDYWGQGTSVTVSS VL: QIVLSQSPAILSASPGEKVTMTCRASSSVTYMYWYQQKPGSSPQPWIYATSNLASGVPARFSGSGSGTSYSLTISRVEAEDAATYYCQQWSSNPLTFGAGTKLELK
test.readout: % inhibition of TNFα secretion
result: -178
